# Test protocol: Solubility at pH 7.4
# Assay type: physicochemical
# Condition info: pH 7.4, solubility, after shaking at room temperature for 4 h
Measurement type: solubility at 4 h (µM)
Form entry: value (µM) — number only.

## Input Given CCCOC(=O)C1=C(C)CS[C@@H]2[C@H](NC(=O)COc3ccccc3)C(=O)N12 , state its recorded solubility at 4 h.
## Output 23
